molecular target: Grx1 (Homo sapiens); experiment: Grx1 de-glutathionylation enzyme assay; format: biochemical
Sequence (P35754 whole entry): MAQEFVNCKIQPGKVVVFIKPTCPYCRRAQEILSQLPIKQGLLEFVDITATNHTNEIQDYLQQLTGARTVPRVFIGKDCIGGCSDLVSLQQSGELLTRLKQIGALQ
No end group written: not given here.
reported endpoint: IC50

ANHTMQV [1GP3] : 46 µM

// below: IC50 requested for another substance
For the record ETRWPNT [2GTP1] , what value of IC50 is listed for Grx1 (Homo sapiens)? 11 µM
